// data source = paper PMC10786891

Give measured Kd for each item. Keep answers brief.
Target desc: T1, EsCas13d, nuclease-dead (Eubacterium siraeum, UniProt B0MS50, R295A;H300A;R849A;H854A)
T1 sequence: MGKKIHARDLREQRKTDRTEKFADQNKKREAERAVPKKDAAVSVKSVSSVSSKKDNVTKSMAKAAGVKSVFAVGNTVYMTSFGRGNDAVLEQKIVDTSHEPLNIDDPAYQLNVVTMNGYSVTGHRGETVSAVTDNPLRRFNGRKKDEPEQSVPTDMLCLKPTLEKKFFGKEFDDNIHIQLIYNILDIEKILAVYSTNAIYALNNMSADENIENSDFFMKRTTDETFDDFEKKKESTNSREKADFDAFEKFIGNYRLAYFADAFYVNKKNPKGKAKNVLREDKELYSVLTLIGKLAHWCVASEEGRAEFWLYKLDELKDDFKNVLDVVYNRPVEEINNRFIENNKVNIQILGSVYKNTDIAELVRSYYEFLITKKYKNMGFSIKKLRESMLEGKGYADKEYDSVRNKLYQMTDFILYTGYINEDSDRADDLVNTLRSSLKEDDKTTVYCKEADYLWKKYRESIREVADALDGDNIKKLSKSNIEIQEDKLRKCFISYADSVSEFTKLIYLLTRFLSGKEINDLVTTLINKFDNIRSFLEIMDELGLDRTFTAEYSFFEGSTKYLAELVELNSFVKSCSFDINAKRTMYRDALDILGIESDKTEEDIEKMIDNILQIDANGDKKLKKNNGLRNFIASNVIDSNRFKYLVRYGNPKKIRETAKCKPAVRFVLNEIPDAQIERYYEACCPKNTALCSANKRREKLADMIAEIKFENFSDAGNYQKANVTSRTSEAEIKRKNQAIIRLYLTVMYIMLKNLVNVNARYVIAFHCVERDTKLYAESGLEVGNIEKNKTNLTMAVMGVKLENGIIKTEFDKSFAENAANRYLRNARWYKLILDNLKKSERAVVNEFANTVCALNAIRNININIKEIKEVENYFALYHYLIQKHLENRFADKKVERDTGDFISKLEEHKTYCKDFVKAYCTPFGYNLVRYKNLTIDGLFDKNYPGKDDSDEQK
Method description: crRNA (strand 1, pre-loaded); Mg2+; 40 mM Tris-HCl pH 7.5, 150 mM NaCl, 6 mM MgCl2, 1 mM DTT, 0.1% Tween-20, 0.2 mg/ml BSA; 25 C; 10 min per concentration, then washed
Condition parameters: tags: His6-TwinStrep-SUMO cleaved; N-terminal SNAP kept (SNAP-Surface 488); label: 3' end held by stalled T7 RNA polymerase
// units = nM; emit number, no label

Name the recorded Kd for target 1 insC 3' of 22,insC 3' of 11 (mixed) RNA 1: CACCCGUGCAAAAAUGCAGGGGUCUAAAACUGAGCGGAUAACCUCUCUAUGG RNA 2: GGGAAUGGAUCCACAUCUACGAAUUCGUACCCAUAGAGAGGUCUAUCCGCUCACCGAGAUCGGAAGAGCACACGU .
50

Entry target 1 insC 3' of 20,insC 3' of 10 (mixed) RNA 1: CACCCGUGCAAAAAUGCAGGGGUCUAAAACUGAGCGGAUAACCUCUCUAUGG RNA 2: GGGAAUGGAUCCACAUCUACGAAUUCGUACCACUAGAGAGGUUCAUCCGCUCACCGAGAUCGGAAGAGCACACGU : reported Kd = ?
8.7

Which Kd is reported for this binder? target 1 MT 5'PFS CCU 3'PFS UCU (mixed) RNA 1: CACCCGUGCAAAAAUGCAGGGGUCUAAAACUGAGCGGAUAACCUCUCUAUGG RNA 2: GGGAAUGGAUCCACAUCUACGAAUUCCCUCCAUAGAGAGGUUAUCCGCUCAUCUAGAUCGGAAGAGCACACGU
14.4

# get_value(readout='Kd', item= target 1 C4G,A20U (mixed) RNA 1: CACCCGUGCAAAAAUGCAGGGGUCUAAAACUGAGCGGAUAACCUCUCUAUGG RNA 2: GGGAAUGGAUCCACAUCUACGAAUUCGUACCUUAGAGAGGUUAUCCGGUCACCGAGAUCGGAAGAGCACACGU )
17.5

May I ask what Kd has been recorded for target 2 MT 5'PFS GUC 3'PFS CGU (mixed) RNA 1: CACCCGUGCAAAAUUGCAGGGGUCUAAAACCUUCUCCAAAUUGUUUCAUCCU RNA 2: GGGAAUGGAUCCACAUCUACGAAUUCGUCAGGAUGAAACAAUUUGGAGAAGCGUAGAUCGGAAGAGCACACGU ?
17.5

Can you share its Kd? I mean this binder: target 1 insC 3' of 22,insC 3' of 3 (mixed) RNA 1: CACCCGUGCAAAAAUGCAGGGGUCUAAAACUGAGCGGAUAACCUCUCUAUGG RNA 2: GGGAAUGGAUCCACAUCUACGAAUUCGUACCCAUAGAGAGGUUAUCCGCUCCACCGAGAUCGGAAGAGCACACGU
15.6

Param item = target 1 insA 3' of 22,insU 3' of 1 (mixed) RNA 1: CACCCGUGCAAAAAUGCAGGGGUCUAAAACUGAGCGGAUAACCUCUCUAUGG RNA 2: GGGAAUGGAUCCACAUCUACGAAUUCGUACACAUAGAGAGGUUAUCCGCUCAUCCGAGAUCGGAAGAGCACACGU ; retrieve measured Kd.
15
